Exercise: state measured kon for each of the binders provided.
Target: human IL-1beta (human, UniProt P01584 117-269)
Test: SPR (BIAcore); antibody captured by anti-Fc, IL-1beta injected
Provide only the numeric value, understood in M⁻¹ s⁻¹.

Given item huH34-1 (antibody, V domains shown, VH = 01 and VL = 16 read by analogy with huH34-2 (VH 06, VL 16); Humanized) VH: QVQLVQSGAEVKKPGASVKVSCKASGYTFTGYYMHWVRQAPGQGLEWMGYISSYSGFTTYAQKFQGRVTMTRDTSISTAYMELSRLRSDDTAVYYCARSDYYGTSLYWGQGTLVTVSS VL: EIVLTQSPATLSLSPGERATLSCRASSSVSYMHWSQQKPGQAPRLLIYSTSNLASGIPARFSGSGSGTDFTLTISSLEPEDFAVYYCHQWSNYYTFGQGTKLEIK , the value recorded as its kon is 1.49e+06

Given item huH34-3 (antibody, V domains shown, VH = 11 and VL = 16 read by analogy with huH34-2) VH: QVQLVQSGAEVKKPGASVKVSCKASGYTFTGYYMHWVRQAPGQGLEWIGYISSYSAFTTYNQKFRGRATFTVDTSISTAYMELSRLRSDDTAVYYCVRSDYYGTSLYWGQGTLVTVSS VL: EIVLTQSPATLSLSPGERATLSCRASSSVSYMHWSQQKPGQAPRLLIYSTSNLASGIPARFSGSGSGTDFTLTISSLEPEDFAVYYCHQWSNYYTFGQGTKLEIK , the value recorded as its kon is 1.97e+06

The values you see were collected from patent US20170240629A1.
